Reported pIC50, human URAT1 (Homo sapiens, UniProt Q96S37).
Convention used: pIC50 is expressed as -log10 of the molar concentration.

Below: 3 compounds and their reported pIC50.
O=C([O-])CSc1nnc(Br)n1CC1CCCCC1.[Na+] [1c] ... 5.34
O=C([O-])CSc1nnc(Br)n1Cc1ccc2ccccc2c1.[Na+] [1m] ... 5.33
O=C([O-])CSc1nnc(Br)n1Cc1ccc2ncccc2c1.[Na+] [1n] ... 5.87

Proceed to the following item.
Lookup: Given the entry CC(C)(Sc1nnc(Br)n1Cc1ccc(C#N)c2ccccc12)C(=O)O [1o] , what pIC50 was observed with human URAT1 (Homo sapiens, UniProt Q96S37)?
Found: 5.71

----------
Reported pIC50, human URAT1 (Homo sapiens).
Convention used: pIC50 is expressed as -log10 of the molar concentration.

Below: 3 molecules and their reported pIC50.
O=C([O-])CSc1nnc(Br)n1Cc1ccco1.[Na+] ... 5.34
O=C([O-])CSc1nnc(Br)n1Cc1ccc(-c2ccccc2)s1.[Na+] ... 4.50
O=C([O-])CSc1nnc(Br)n1Cc1ccc(Cl)s1.[Na+] ... 4.95

Lookup: So what does the record say about pIC50 for `CCn1c(Br)nnc1SCC(=O)O` ?
Found: 4.73

Lookup: So what does the record say about pIC50 for `CC(C)(Sc1ccncc1Cc1ccc(C#N)c2ccccc12)C(=O)O` ?
Found: 5.86

----------
Reported melting point values follow for various molecules

O=C([O-])CSc1nnc(Br)n1Cc1ccc2ccccc2c1.[Na+] [1m] ... 118 °C (dec.)
O=C([O-])CSc1nnc(Br)n1Cc1cccnc1.[Na+] [1f] ... 109 to 111 °C
N#Cc1ccc(Cc2cnccc2SCC(=O)[O-])c2ccccc12.[Na+] [1t] ... 268 °C (dec.)
O=C([O-])C1(Sc2ncc(Br)n2Cc2cccs2)CCC1.[Na+] [1x] ... 210 °C (dec.)
N#Cc1ccc(Cn2c(Br)cnc2SCC(=O)[O-])c2ccccc12.[Na+] [1q] ... 161 °C (dec.)

Lookup: So what does the record say about melting point for O=C([O-])CSc1nnc(Br)n1Cc1ccc(-c2ccccc2)cc1.[Na+] [1i] ?
Found: 199 to 201 °C

Lookup: So what does the record say about melting point for O=C([O-])CSc1nnc(Br)n1Cc1ccco1.[Na+] [1g] ?
Found: 108 to 111 °C

Lookup: So what does the record say about melting point for O=C([O-])CSc1nnc(Br)n1CC1CCCCC1.[Na+] [1c] ?
Found: 135 °C (dec.)

Lookup: So what does the record say about melting point for Cc1ccc(Cn2c(Br)nnc2SCC(=O)[O-])s1.[Na+] [1hb] ?
Found: 157 °C (dec.)

Lookup: So what does the record say about melting point for O=C([O-])CSc1nnc(Br)n1Cc1ccc2occc2c1.[Na+] [1k] ?
Found: 92 °C (dec.)

----------
TARGET OR TEST SYSTEM: human URAT1 (Homo sapiens, UniProt Q96S37)
Sequence (Q96S37 whole entry): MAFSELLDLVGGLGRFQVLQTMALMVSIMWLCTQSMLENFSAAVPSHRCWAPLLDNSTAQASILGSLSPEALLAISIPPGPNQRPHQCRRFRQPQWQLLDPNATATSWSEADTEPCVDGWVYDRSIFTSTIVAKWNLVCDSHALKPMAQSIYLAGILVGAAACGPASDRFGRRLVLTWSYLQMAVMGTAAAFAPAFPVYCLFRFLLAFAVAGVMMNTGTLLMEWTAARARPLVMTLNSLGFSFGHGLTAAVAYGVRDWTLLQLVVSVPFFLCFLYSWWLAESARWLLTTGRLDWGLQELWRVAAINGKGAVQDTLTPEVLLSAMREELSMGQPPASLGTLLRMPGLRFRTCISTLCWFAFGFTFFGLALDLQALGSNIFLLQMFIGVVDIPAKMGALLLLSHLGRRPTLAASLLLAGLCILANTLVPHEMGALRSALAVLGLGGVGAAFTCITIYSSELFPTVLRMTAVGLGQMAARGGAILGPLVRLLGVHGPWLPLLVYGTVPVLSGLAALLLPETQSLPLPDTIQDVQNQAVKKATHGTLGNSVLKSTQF
Reported pIC50 values follow for various compounds
Convention used: pIC50 is expressed as -log10 of the molar concentration.

Below: 4 compounds and their reported pIC50.
Cc1ccsc1Cn1c(Br)nnc1SCC(=O)[O-].[Na+] ... 5.52
N#Cc1ccc(Cc2cnccc2SCC(=O)[O-])c2ccccc12.[Na+] ... 5.05
O=C([O-])CSc1nnc(Br)n1CC12CC3CC(CC(C3)C1)C2.[Na+] ... 5.29
O=C([O-])CSc1nnc(Br)n1Cc1sc2ccccc2c1Br.[Na+] ... 6.92

Lookup: Given the entry `O=C([O-])CSc1nnc(Br)n1Cc1ccccc1.[Na+]` , what pIC50 was observed with human URAT1 (Homo sapiens, UniProt Q96S37)?
Found: 5.53
